Reported DBIL values for the following compounds.
organism: Rattus norvegicus; experiment: Open TG-GATES - Regimen: Single; assay type: toxicity, organism-based, Sprague-Dawley; parameters: regimen Single, gender Male, age 6 weeks; settings: in vivo, po, 300 mg/kg, 9 h, tissue Plasma, route gavage, dose level Middle
Report only the number, with the unit mg/dL understood.

{"columns": ["SAMPLE_SMILES", "ENDPOINT", "OBS_VALUE"],
 "data": [
  ["COC(=O)C1=C(C)NC(C)=C(C(=O)OC)C1c1ccccc1[N+](=O)[O-]", "DBIL", 0.01],
  ["O=C(OC[C@H]1O[C@@H](OC(=O)c2cc(O)c(O)c(OC(=O)c3cc(O)c(O)c(O)c3)c2)[C@H](OC(=O)c2cc(O)c(O)c(OC(=O)c3cc(O)c(O)c(O)c3)c2)[C@@H](OC(=O)c2cc(O)c(O)c(OC(=O)c3cc(O)c(O)c(O)c3)c2)[C@@H]1OC(=O)c1cc(O)c(O)c(OC(=O)c2cc(O)c(O)c(O)c2)c1)c1cc(O)c(O)c(OC(=O)c2cc(O)c(O)c(O)c2)c1", "DBIL", 0.034]
]}

Field request: DBIL | item: CN/C(=N/CCSCc1nc[nH]c1C)NC#N
0.068

Field request: DBIL | item: CNC(=C[N+](=O)[O-])NCCSCc1ccc(CN(C)C)o1
0.074

Field request: DBIL | item: Cc1nnc2n1-c1ccc(Cl)cc1C(c1ccccc1Cl)=NC2
0.01
